Origin of measurements: patent US20030203908A1

Overview of recorded pKi for various molecules
Measurement target: DHFR-TS from Trypanosoma cruzi (Trypanosoma cruzi, UniProt Q27793)
Construct: pET 11c with the insertion of the complete ORF of the gene tc-dhfrts; made in house; host or cells: E. coli BL21 (DE3)
Sequence (Q27793 whole entry): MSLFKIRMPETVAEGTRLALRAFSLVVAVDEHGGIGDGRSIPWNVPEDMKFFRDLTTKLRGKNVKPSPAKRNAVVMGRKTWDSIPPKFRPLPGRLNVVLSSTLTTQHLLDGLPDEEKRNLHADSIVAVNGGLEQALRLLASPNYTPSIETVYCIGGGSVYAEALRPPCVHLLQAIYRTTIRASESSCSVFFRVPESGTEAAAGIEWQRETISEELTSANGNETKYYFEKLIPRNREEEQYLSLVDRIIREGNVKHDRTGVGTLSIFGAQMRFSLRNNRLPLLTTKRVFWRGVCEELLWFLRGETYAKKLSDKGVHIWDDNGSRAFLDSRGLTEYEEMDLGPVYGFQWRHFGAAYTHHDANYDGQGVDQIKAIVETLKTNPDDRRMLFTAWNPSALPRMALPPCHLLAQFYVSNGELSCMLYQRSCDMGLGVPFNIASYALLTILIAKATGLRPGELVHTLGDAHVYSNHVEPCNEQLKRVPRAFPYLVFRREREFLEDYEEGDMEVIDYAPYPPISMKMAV
Experimental protocol: Inhibition of T. cruzi DHFR-TS (I50-derived Ki);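 note: enzymes were recombinant T. cruzi DHFR-TS and human DHFR, both expressed in E. coli and purified on a methotrexate affinity column, with dihydrofolate and NADPH as substrates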
Assay type: biochemical
pKi: −log10 of the molar value.
Measure: pKi

> print(dat)
                                   molecule  numeric.result
1  NC1=NC(c2cccc(Oc3ccccc3)c2)N(c2ccc(OCc3ccccc3)cc2)C(N)=N1 (stereo not shown)            8.52
2  CCCCOc1ccc(C2N=C(N)N=C(N)N2c2ccc(Cl)cc2)cc1 (stereo not shown)            7.59
3  NC1=NC(c2cccc(OCc3ccccc3)c2)N(c2cccc(Cl)c2)C(N)=N1 (stereo not shown)            7.92
4  COc1ccc(Oc2cccc(C3N=C(N)N=C(N)N3c3ccc(Cl)cc3)c2)cc1 (stereo not shown)            7.32
